Measured % inhibition of labeled B4 binding values are reported for all entries that follow.
# subject of test: T1, CD19 antigen on Daudi lymphoma cells (human, UniProt P15391 20-556)
# T1 construct: whole, on cells; also called Daudi cells
# T1 sequence (looked up): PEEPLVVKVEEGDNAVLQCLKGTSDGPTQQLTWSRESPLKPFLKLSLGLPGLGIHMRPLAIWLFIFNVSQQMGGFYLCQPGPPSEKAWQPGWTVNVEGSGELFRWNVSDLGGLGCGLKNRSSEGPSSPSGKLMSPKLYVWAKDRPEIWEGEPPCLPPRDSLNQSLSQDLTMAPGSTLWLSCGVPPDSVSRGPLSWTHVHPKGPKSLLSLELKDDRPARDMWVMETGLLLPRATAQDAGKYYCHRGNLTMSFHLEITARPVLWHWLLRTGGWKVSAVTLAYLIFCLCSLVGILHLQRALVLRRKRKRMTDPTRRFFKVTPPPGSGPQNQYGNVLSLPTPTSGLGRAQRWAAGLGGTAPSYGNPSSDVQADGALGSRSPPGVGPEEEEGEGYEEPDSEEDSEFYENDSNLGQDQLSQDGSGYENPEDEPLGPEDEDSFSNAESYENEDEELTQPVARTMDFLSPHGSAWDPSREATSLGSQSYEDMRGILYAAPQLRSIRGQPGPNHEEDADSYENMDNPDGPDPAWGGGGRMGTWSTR
# protocol notes: FACS competition on Daudi cells; unlabeled antibody 400 ng/ml (4x) vs competitor biotin-B4 VH0/VK0 100 ng/ml
Please respond with the number in % and leave the unit unwritten.

# return recorded % inhibition of labeled B4 binding for entry B4 VHv4/VKv4 antibody (antibody, V domains shown) VH: QVQLEQPGAEVVKPGASVKVSCKTSGYTFTSNWMHWVKQTPGKGLEWIGEIDPSDSYTNYNQKFDGKAKLTVDKSSSTAYMEVSDLTAEDSATYYCARGSNPYYYAMDYWGQGTSVTVSS VL: QIVLTQSPATLSASPGEKATMTCSASSGVNYMHWYQQKPGTSPKRWIYDTDKTASGVPARFSGSGSGTSYSLTISSMEAEDAATYYCHQRGSYTFGGGTKLEIK
48
